Sourced from PubChem BioAssay

# protocol: growth suppression of PTEN-deleted HCT116, pilot screen, cell-based, HCT116 clonal line, CellTiter-Glo (AID 824);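 note: 0% = 20 µM Hyamine control and 100% = vehicle cell control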
# condition.parameters: 60 h, at 10 µM, active compounds read low
Records with an inconclusive call do not appear. The source made the active and inactive calls.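 Rule for the calls: active = viability at or below 27.92% in each of two runs, the all-compound median minus 4 SD; inconclusive = no clear call, values can overlap the other calls; inactive = the rest.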
readout.type: viability

Exercise: Record request: viability value, item COc1cc(C(=O)NCC(c2cccnc2)N2CCN(c3ccccc3)CC2)cc(OC)c1OC (centres undefined)
Solution: 92.5% (inactive)

Exercise: GET /values?readout=viability&item= c1ccc2cc3[nH]c(CN4CCCCC4)nc3cc2c1
Solution: 87.6% (inactive)

Exercise: Which viability is listed for COc1ccccc1NC(=O)CSc1nc2sc(C)c(C)c2c(=O)n1Cc1ccco1 ?
Solution: 92% (inactive)

Exercise: So what's the measured viability for this one? CC1CCN(CCCNC(=O)CN2CCN(Cc3ccc(Cl)cc3)C2=O)CC1
Solution: 89.3% (inactive)

Exercise: Reported viability, compound Cc1ccc(N2CC(c3nc4ccccc4[nH]3)CC2=O)c(C)c1 (centres undefined) : ____
Solution: 94.4% (inactive)

Exercise: Quick one: viability of CCCC(=O)C1=C(O)C(C(=O)OC)C(C)(C)CC1=NC (centres undefined) ?
Solution: 94.9% (inactive)

Exercise: # viability lookup, item COc1ccc(OC)c2[nH]c(=O)c(CCNC(=O)C(C)(C)C)cc12
Solution: 102% (inactive)

Exercise: # query: viability of entry O=C(O)c1n[nH]c2ccccc12
Solution: 95.6% (inactive)

Exercise: // viability lookup, key: CCOc1ccc(N(CC(=O)Nc2nccs2)S(=O)(=O)c2c(C)noc2C)cc1
Solution: 89.1% (inactive)

Exercise: Form field: reported viability of CCCC(=O)N(Cc1cc2cc(C)ccc2[nH]c1=O)c1ccccc1OC
Solution: 78% (inactive)

Exercise: Sample COc1ccc(-c2cn3c(C)c(C(=O)N4CCCc5ccccc54)sc3n2)cc1 — what was its viability?
Solution: 65.6% (inactive)

Exercise: Report viability for CCSc1nnc2c(n1)[nH]c1c(C)cccc12 please.
Solution: 65.5% (inactive)

Exercise: Look up viability: CCOC(=O)c1sc(NC(=O)c2ccco2)nc1C
Solution: 91.8% (inactive)

Exercise: What does the data say about its viability? Entry: COc1ccc(S(=O)(=O)NCc2ccccc2Cl)cc1OC
Solution: 96.1% (inactive)

Exercise: GET /values?readout=viability&item= O=C(NCCc1csc(-c2cccnc2)n1)c1ccc(Br)o1
Solution: 97.3% (inactive)

Exercise: Fill blank: measured viability of the compound CCCCN(C)C(=O)c1c[nH]c2ccc(S(=O)(=O)N3CCOCC3)cc2c1=O is ____.
Solution: 98.8% (inactive)

Exercise: So what's the measured viability for this one? CCN1CCN(C(=O)CS(=O)(=O)Cc2nc(-c3ccc(C)cc3)oc2C)CC1
Solution: 87.8% (inactive)

Exercise: Returns the measured viability for the input compound. Input: Cc1c(C(=O)NCc2ccccn2)sc2nc(-c3ccccc3)cn12
Solution: 101% (inactive)

Exercise: Return reported viability; argument: O=C(Nc1ccc(OC(F)(F)F)cc1)c1cnc2n(c1=O)CCS2
Solution: 79.1% (inactive)

Exercise: Entry CCN(CCCNC(=O)Cn1cc2c(n1)CCCC2)c1cccc(C)c1 has what viability?
Solution: 81.5% (inactive)

Exercise: Query: viability; subject: O=C(Nc1nnc(-c2ccc3c(c2)CCCC3)o1)C1COc2ccccc2O1 (centres undefined)
Solution: 51.1% (inactive)

Exercise: Suppose we examine the compound CCC(C)OC(=O)C1=C(C)NC(=O)NC1c1ccc(F)cc1 (centres undefined) ; what viability value has been reported?
Solution: 92.7% (inactive)

Exercise: Which viability is listed for COc1ccc(-c2cn3c(C)c(C(=O)N4CCN(c5ccccc5F)CC4)sc3n2)cc1 ?
Solution: 78% (inactive)

Exercise: Look up viability for this compound: CC1(C)CC(=O)N(CC(=O)O)c2ccccc2S1(=O)=O
Solution: 96.3% (inactive)

Exercise: Would you kindly share the measured viability for CC1CC=C2C(C#N)=C(N)C(C#N)(C#N)C(c3cccs3)C2C1 (centres undefined) ?
Solution: 85.7% (inactive)

Exercise: Look up viability: COc1ccc(N2CC(C(=O)Nc3ccc(S(=O)(=O)Nc4nc(C)cc(C)n4)cc3)CC2=O)cc1 (centres undefined)
Solution: 91.4% (inactive)

Exercise: For COc1cccc(OC)c1C(=O)Nc1nnc(C(C)C)s1 , what is its reported viability?
Solution: 85.1% (inactive)

Exercise: Need viability of Cc1occc1-c1nnc(SCCCC(=O)c2ccc(F)cc2)n1C , thanks.
Solution: 87.4% (inactive)

Exercise: Item under review: CN(c1ccccc1)S(=O)(=O)c1cccc(C(=O)N2CCN(c3ccccn3)CC2)c1 . Reported viability?
Solution: 86.1% (inactive)
